Assay: Dissociation constant, pKa of the compound
Assay type: physicochemical
experimental-endpoint: pKa
Answers are plain numbers.

Examples with answers:
# substance-smiles, pKa
measured = [
    ("c1cc(NCCCNCc2ccc3c(c2)OCO3)c2ccc(CC3CCCCC3)cc2n1", 9.47),
    ("FC(F)(F)c1cc(-c2ccc3c(NCCCNCc4ccco4)ccnc3c2)cc(C(F)(F)F)c1", 9.47),
    ("c1cc(NCCCNCc2ccc3c(c2)OCO3)c2ccc(C3CCCCC3)cc2n1", 9.47),
    ("c1coc(CNCCCNc2ccnc3cc(Cc4ccc5c(c4)OCO5)ccc23)c1", 9.47),
    ("COc1cccc(CNCCCNc2ccnc3cc(Cc4ccccc4)ccc23)c1O", 9.47),
    ("COc1ccc(F)cc1CNCCCNc1ccnc2cc(-c3ccccc3)ccc12", 9.47),
    ("CN(C)c1cccc(Oc2ccc3c(NCCCNCc4ccco4)ccnc3c2)c1", 9.28),
    ("COc1cccc(CNCCCNc2ccnc3cc(CCC(C)C)ccc23)c1O", 9.47),
    ("COc1ccc(F)cc1CNCCCNc1ccnc2cc(Cc3ccc(F)cc3)ccc12", 9.47),
    ("COc1cccc(CNCCCNc2ccnc3cc(Oc4ccc(C(C)(C)C)cc4)ccc23)c1O", 9.28),
]

Provide pKa for all items below, preserving their order.
1. COc1ccc(F)cc1CNCCCNc1ccnc2cc(Cc3ccc(F)cc3Cl)ccc12
2. CCC(CC)c1ccc2c(NCCCNCc3cc(F)ccc3OC)ccnc2c1
3. COc1cccc(CNCCCNc2ccnc3cc(-c4cccc5ccccc45)ccc23)c1O

a:
1: 9.47; 2: 9.47; 3: 9.47

Provide pKa for all items below, preserving their order.
1. COc1ccc(F)cc1CNCCCNc1ccnc2cc(Cc3ccccc3)ccc12
2. COc1cccc(CNCCCNc2ccnc3cc(CC(C)C)ccc23)c1O
3. Fc1ccc(Cc2ccc3c(NCCCNCc4ccc5c(c4)OCO5)ccnc3c2)c(Cl)c1
4. COc1cccc(CNCCCNc2ccnc3cc(Cc4ccc(F)cc4Cl)ccc23)c1O
5. c1ccc(Cc2ccc3c(NCCCNCc4ccco4)ccnc3c2)cc1
6. COc1ccc(F)cc1CNCCCNc1ccnc2cc(-c3ccc(F)cc3)ccc12

a:
9.47
9.47
9.47
9.47
9.47
9.47

Provide pKa for all items below, preserving their order.
1. CCC(CC)c1ccc2c(NCCCNCc3cccc(OC)c3O)ccnc2c1
2. COc1cccc(CNCCCNc2ccnc3cc(Cc4cc(C)cc(C)c4)ccc23)c1O
3. FC(F)(F)c1ccc(-c2ccc3c(NCCCNCc4ccc5c(c4)OCO5)ccnc3c2)cc1
4. COc1ccc(F)cc1CNCCCNc1ccnc2cc(Oc3ccccc3OC)ccc12
5. COc1ccc(F)cc1CNCCCNc1ccnc2cc(Oc3ccc(C(C)(C)C)cc3)ccc12
6. COc1ccc(F)cc1CNCCCNc1ccnc2cc(Cc3cc(C)cc(C)c3)ccc12
7. c1coc(CNCCCNc2ccnc3cc(-c4cccc5ccccc45)ccc23)c1

a:
1: 9.47; 2: 9.47; 3: 9.47; 4: 9.28; 5: 9.28; 6: 9.47; 7: 9.47

Provide pKa for all items below, preserving their order.
1. COc1ccc(-c2ccc3c(NCCCNCc4cc(F)ccc4OC)ccnc3c2)cc1
2. COc1ccc(F)cc1CNCCCNc1ccnc2cc(CC(C)C)ccc12
3. c1ccc(Oc2ccc3c(NCCCNCc4ccco4)ccnc3c2)cc1
4. COc1cccc(Oc2ccc3c(NCCCNCc4cc(F)ccc4OC)ccnc3c2)c1

a:
9.47
9.47
9.28
9.28

###

Kindly supply the reported Papp at 0.5 h values for the records listed here.
Assay: Permeability of the compound at pH 7.4 after 30 mins by PAMPA
Assay type: ADME
Settings: read-out: permeability
One number for each entry, in ×10⁻⁶ cm/s.

# substance-smiles, observed
records = [
    ("FC(F)(F)c1cccc(Cc2ccc3c(NCCCNCc4ccco4)ccnc3c2)c1", 23),
]

Provide Papp at 0.5 h for all items below, preserving their order.
1. COc1ccc(Oc2ccc3c(NCCCNCc4ccco4)ccnc3c2)cc1
2. COc1ccc(Oc2ccc3c(NCCCNCc4ccc5c(c4)OCO5)ccnc3c2)cc1
3. FC(F)(F)c1ccc(-c2ccc3c(NCCCNCc4ccc5c(c4)OCO5)ccnc3c2)cc1
4. c1ccc(CCc2ccc3c(NCCCNCc4ccco4)ccnc3c2)cc1

a:
317
317
237
23

###

Experiment: Dissociation constant, pKa of the compound
Format: physicochemical
experimental-endpoint: pKa
Answers are plain numbers.

# substance-smiles, observed
measured = [
    ("COc1ccc(F)cc1CNCCCNc1ccnc2cc(CCC(C)C)ccc12", 9.47),
    ("COc1cccc(CNCCCNc2ccnc3cc(Cc4ccc5c(c4)OCO5)ccc23)c1O", 9.47),
    ("c1ccc(Cc2ccc3c(NCCCNCc4ccc5c(c4)OCO5)ccnc3c2)cc1", 9.47),
]

Provide pKa for all items below, preserving their order.
1. COc1cccc(Oc2ccc3c(NCCCNCc4ccc5c(c4)OCO5)ccnc3c2)c1
2. Fc1ccc(Oc2ccc3c(NCCCNCc4ccc5c(c4)OCO5)ccnc3c2)cc1
3. c1cc(NCCCNCc2ccc3c(c2)OCO3)c2ccc(Cc3ccc4c(c3)OCO4)cc2n1

a:
1: 9.28; 2: 9.28; 3: 9.47

Provide pKa for all items below, preserving their order.
1. COc1cccc(CNCCCNc2ccnc3cc(-c4ccc(C(C)(C)C)cc4)ccc23)c1O
2. COc1ccc(F)cc1CNCCCNc1ccnc2cc(Cc3ccc(C#N)cc3)ccc12
3. COc1cccc(CNCCCNc2ccnc3cc(CCc4ccccc4)ccc23)c1O
4. COc1ccc(Oc2ccc3c(NCCCNCc4ccco4)ccnc3c2)cc1
5. Clc1ccc(Oc2ccc3c(NCCCNCc4ccco4)ccnc3c2)cc1
6. COc1ccc(F)cc1CNCCCNc1ccnc2cc(CC3CCCCC3)ccc12

a:
[9.47, 9.47, 9.47, 9.28, 9.28, 9.47]

Provide pKa for all items below, preserving their order.
1. COc1cccc(CNCCCNc2ccnc3cc(-c4ccc(C(F)(F)F)cc4)ccc23)c1O
2. COc1cccc(Oc2ccc3c(NCCCNCc4cccc(OC)c4O)ccnc3c2)c1
3. CC(C)(C)c1ccc(Oc2ccc3c(NCCCNCc4ccc5c(c4)OCO5)ccnc3c2)cc1
4. CC(C)CCc1ccc2c(NCCCNCc3ccco3)ccnc2c1
5. c1ccc(CCc2ccc3c(NCCCNCc4ccco4)ccnc3c2)cc1
6. c1ccc(-c2ccc3c(NCCCNCc4ccco4)ccnc3c2)cc1
7. COc1cccc(CNCCCNc2ccnc3cc(-c4cc(C(F)(F)F)cc(C(F)(F)F)c4)ccc23)c1O

a:
1: 9.47; 2: 9.28; 3: 9.28; 4: 9.47; 5: 9.47; 6: 9.47; 7: 9.47

###

Assay: Permeability of the compound at pH 7.4 after 30 mins by PAMPA
Assay type: ADME
Settings: read-out: permeability
Kindly supply the reported Papp at 0.5 h values for the records listed here.
Numbers only, in ×10⁻⁶ cm/s.

Examples with answers:
# substance-smiles, Papp at 0.5 h [×10⁻⁶ cm/s]
data = [
    ("CC(C)Cc1ccc2c(NCCCNCc3ccc4c(c3)OCO4)ccnc2c1", 23),
    ("COc1ccc(F)cc1CNCCCNc1ccnc2cc(Oc3ccccc3OC)ccc12", 317),
    ("c1ccc2c(-c3ccc4c(NCCCNCc5ccc6c(c5)OCO6)ccnc4c3)cccc2c1", 237),
    ("COc1cccc(CNCCCNc2ccnc3cc(Cc4ccc5c(c4)OCO5)ccc23)c1O", 237),
    ("N#Cc1ccc(Cc2ccc3c(NCCCNCc4ccco4)ccnc3c2)cc1", 23),
    ("COc1cccc(CNCCCNc2ccnc3cc(-c4ccc(F)cc4)ccc23)c1O", 237),
]

Provide Papp at 0.5 h for all items below, preserving their order.
1. COc1cccc(Oc2ccc3c(NCCCNCc4cc(F)ccc4OC)ccnc3c2)c1
2. c1ccc(Cc2ccc3c(NCCCNCc4ccc5c(c4)OCO5)ccnc3c2)cc1
3. COc1cccc(CNCCCNc2ccnc3cc(Oc4ccccc4)ccc23)c1O

a:
[317, 23, 317]

So, FC(F)(F)c1ccc(-c2ccc3c(NCCCNCc4ccco4)ccnc3c2)cc1 ? Its Papp at 0.5 h was 237

###

Test: Permeability of the compound at pH 7.4 after 30 mins by PAMPA
Type: ADME
Details: read-out: permeability
Kindly supply the reported Papp at 0.5 h values for the records listed here.
Answers are plain numbers, in ×10⁻⁶ cm/s.

Examples with answers:
# substance-smiles, display-unit, Papp at 0.5 h
rows = [
    ("COc1ccc(F)cc1CNCCCNc1ccnc2cc(Cc3cc(C)cc(C)c3)ccc12", "×10⁻⁶ cm/s", 23),
    ("COc1ccc(-c2ccc3c(NCCCNCc4cccc(OC)c4O)ccnc3c2)cc1", "×10⁻⁶ cm/s", 237),
]

Provide Papp at 0.5 h for all items below, preserving their order.
1. Fc1ccc(Cc2ccc3c(NCCCNCc4ccc5c(c4)OCO5)ccnc3c2)c(Cl)c1
2. COc1ccc(F)cc1CNCCCNc1ccnc2cc(Cc3ccc(F)cc3)ccc12
3. N#Cc1ccc(Cc2ccc3c(NCCCNCc4ccc5c(c4)OCO5)ccnc3c2)cc1

a:
1. 23
2. 23
3. 23
